- Tested on: Malme-3M
- protocol.text: NCI tumour cell line growth inhibition, 48 h
The source made the active and inactive calls. No stated cut-off is given here; in the data, active = GI50 up to about 1.1 µM and inactive = higher. Non-standard residues stand in square brackets, D forms with d. Residues, ends and D or L forms follow the SMILES beside them. Ava = NCCCCC(=O)O; Mpa = O=C(O)CCS
Can you answer with just one of these options? active, inactive

Sample answers from the record:
compound | assigned.category
CCOc1ccc(N2C(=O)C3c4[nH]c5ccccc5c4C4CCC(C(C)(C)C)CC4C3C2=O)cc1 (stereo not drawn) | inactive
CCOC(=O)CC1(N)CC2c3ccccc3OC(=O)C2C(=O)N1 (stereo not drawn) | inactive
O=C1C=C(Nc2ccccc2C(=O)c2ccccc2)c2ccccc2C1=O | inactive
N=C(N)N/N=C/c1c(-c2cccc([N+](=O)[O-])c2)nc2n1CCS2 | inactive
CC(=O)N/N=C1/CC[C@@]2(C)C(=CC[C@H]3C4CCC(C(C)CCCC(C)C)[C@@]4(C)CCC32)C1(C)C (stereo partly drawn) | inactive
CN(C)CCNC(=O)c1cccc2ccc(-c3ccc(F)cc3)nc12 | inactive
O=[N+]([O-])c1ccc(-c2ccc(/C=N/n3c(S)nnc3-c3ccc(Cl)cc3)o2)cc1 | inactive
CN1C/C(=C\c2cccs2)C2=NN(C)C(c3cccs3)C2C1 (stereo not drawn) | inactive
COc1nc(SC)nc2c1cnn2C1OC(C(O)CO)C(OC)C1O (stereo not drawn) | inactive
C=CCSC1=N/C(=C\c2ccco2)C(=O)N1CC=C | inactive

Call for entry C=C[C@@H](C)[C@]1(C(=O)OC)CCCC12OCCO2 :
inactive

Call for entry O=C(NC(=O)c1c(Cl)nc2sccn12)Nc1ccc(Cl)cc1 :
inactive

Call for entry CN(N)/N=N/c1[nH]cnc1C(N)=O :
inactive

Call for entry CC(NC(=O)CCS)C(=O)NC(C)C(=O)NC(Cc1c[nH]c2ccccc12)C(=O)NC(Cc1c[nH]cn1)C(=O)NC(CO)C(=O)NC(Cc1c[nH]c2ccccc12)C(=O)NCCCCC(=O)NC(C)C(=O)NC(CCC(N)=O)C(=O)NC(CCCCN)C(=O)NC(C)C(=O)NC(CCCNC(=N)N)C(=O)NC(CCCCN)C(N)=O (stereo not drawn) ([Mpa]AAWHSW[Ava]AQKARK-NH2; configuration not given here) :
inactive

Call for entry O=c1c2cc3c(cc2c2cccc4c2n1CCC4)OCO3 :
inactive

Call for entry CCc1cccc(C(C)CC)c1NC(=O)C(=O)C(CC(=O)Nc1ccc(Cl)c(Cl)c1)C(=O)OC (stereo not drawn) :
inactive

Call for entry COc1cc2c(cc1OC)C(=O)N(c1ccc(O)cc1)C2 :
inactive

Call for entry CCOC(=O)NNC(=O)NC12CC3CC(CC(C3)C1)C2 :
inactive

Call for entry Cc1ccc(Nc2nc3ccccc3nc2NS(=O)(=O)c2ccc(N)cc2)cc1 :
inactive

Call for entry COc1ccc(/C(C#N)=C/c2ccc(OC)c(OC)c2)cc1 :
inactive

Call for entry CN(CCCN(C)CCc1ccc(Cl)c(Cl)c1)CCCN1CCCC1 :
inactive

Call for entry O=C(CC(=O)c1ccncc1)c1ccccc1 :
inactive

Call for entry CCOC(=O)c1ccc(NC2Oc3cc4c(cc3C(c3cc(OC)c(OC)c(OC)c3)C2C)OCO4)cc1 (stereo not drawn) :
active

Call for entry NCCSCC(N)C(=O)O (stereo not drawn) :
inactive

Call for entry C[C@@H]1[C@@H](c2ccccc2)O[B-](c2ccccc2)(c2ccccc2)[N+]1(C)C :
inactive

Call for entry CC(=O)OCCn1c(Cc2ccc(C)cc2)nn(C(C)=O)c1=O :
inactive

Call for entry COc1ccc2c(=O)c(-c3cc(OC)c(OC)cc3OC)coc2c1 :
inactive

Call for entry COc1cccc(C2c3cc4c(cc3OC(O)(CO)C2C(=O)O)OCO4)c1.COc1cccc(C2c3cc4c(cc3OC3(O)COC(=O)C23)OCO4)c1 (stereo not drawn) :
inactive

Call for entry CC(=O)C1CC[C@@H]2[C@H](CC[C@]3(C)[C@@H](O)CC[C@@H]23)[C@H]1C(=O)O (stereo partly drawn) :
inactive

Call for entry O=C(O)C1CCCCN1C(=O)Cc1c[nH]c2ccccc12 (stereo not drawn) :
inactive
